Listed binders paired with reported pKd
# TARGET SYSTEM: T1, Recombinant soluble E protein (0.8E-His) from DENV-3 (DENV-3, UniProt P27915 281-673)
# T1 construct: also called DENV-3 E protein; DV3
pKd: −log10 of the molar value.
QUANTITY KIND: pKd

INSERT INTO measurements (binder, result) VALUES
  ('DG_3CH1049-SG182/3CL-SK1 (antibody, V domains shown) VH: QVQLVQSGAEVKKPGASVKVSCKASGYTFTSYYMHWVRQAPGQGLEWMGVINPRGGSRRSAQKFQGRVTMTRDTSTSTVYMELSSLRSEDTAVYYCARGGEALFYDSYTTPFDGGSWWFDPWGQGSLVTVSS VL: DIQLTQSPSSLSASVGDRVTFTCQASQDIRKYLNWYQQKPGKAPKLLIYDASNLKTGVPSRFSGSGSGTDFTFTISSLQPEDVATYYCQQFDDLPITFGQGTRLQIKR', 11.62),
  ('DG_3CH1049-SG182/3CL012-SK1 (antibody, V domains shown) VH: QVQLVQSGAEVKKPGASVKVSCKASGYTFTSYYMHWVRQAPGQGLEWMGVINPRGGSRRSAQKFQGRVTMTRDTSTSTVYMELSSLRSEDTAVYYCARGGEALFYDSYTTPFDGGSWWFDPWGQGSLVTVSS VL: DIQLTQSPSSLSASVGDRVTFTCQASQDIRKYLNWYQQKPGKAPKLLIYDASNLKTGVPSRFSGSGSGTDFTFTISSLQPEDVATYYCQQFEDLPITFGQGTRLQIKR', 11.98),
  ('DG_3CH1046-SG182/3CL-SK1 (antibody, V domains shown) VH: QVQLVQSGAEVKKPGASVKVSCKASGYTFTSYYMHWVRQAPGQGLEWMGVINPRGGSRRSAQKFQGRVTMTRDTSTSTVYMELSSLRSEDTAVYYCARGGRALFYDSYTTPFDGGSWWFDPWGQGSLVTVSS VL: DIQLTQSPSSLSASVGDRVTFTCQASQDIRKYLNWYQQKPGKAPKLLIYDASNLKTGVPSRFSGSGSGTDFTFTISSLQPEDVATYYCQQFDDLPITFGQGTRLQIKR', 12.67);
